Recorded values, source patent US12246076B2.

assay: Ex vivo biodistribution in PC-3 tumor-bearing mice; conditions: male, NRG, mouse, small intestine, iv, total radioactivity, Biodistribution Small Intestine Mean, 1 h post-injection, mice bearing PC-3 tumor xenografts, n = 4
tissue uptake at 1 h reference
parameter_measured: tissue uptake at 1 h (%ID/g)

compound="CC(C)C[C@H](NC(=O)[C@H](Cc1c[nH]cn1)NC(=O)CNC(=O)[C@@H](NC(=O)[C@H](C)NC(=O)[C@H](Cc1c[nH]c2ccccc12)NC(=O)[C@H](CCC(N)=O)NC(=O)[C@@H](Cc1ccccc1)NC(=O)CN1CCC(NC(=O)CN2CCN(CC(=O)O)CCN(CC(=O)O)CCN(CC(=O)O)CC2)CC1)C(C)C)C(=O)N1CSC[C@H]1C(N)=O [^68Ga-LW01025, metal not drawn]" parameter_measured="tissue uptake at 1 h" value_reported=0.56
compound="CC(C)C[C@@H](CN1CCC[C@H]1C(N)=O)NC(=O)[C@H](Cc1c[nH]cn1)NC(=O)CN(C)C(=O)[C@@H](NC(=O)[C@H](C)NC(=O)[C@H](Cc1c[nH]c2ccccc12)NC(=O)[C@H](CCC(N)=O)NC(=O)[C@@H](Cc1ccccc1)NC(=O)CN1CCC(NC(=O)CN2CCN(CC(=O)O)CCN(CC(=O)O)CCN(CC(=O)O)CC2)CC1)C(C)C [^68Ga-LW02045, metal not drawn]" parameter_measured="tissue uptake at 1 h" value_reported=0.48
compound="CC(C)C[C@@H](CN1CSC[C@H]1C(N)=O)NC(=O)[C@H](Cc1cnc[nH]1)NC(=O)CN(C)C(=O)[C@@H](NC(=O)[C@H](C)NC(=O)[C@H](Cc1c[nH]c2ccccc12)NC(=O)[C@H](CCC(N)=O)NC(=O)[C@@H](Cc1ccccc1)NC(=O)CN1CCC(NC(=O)CN2CCN(CC(=O)O)CCN(CC(=O)O)CCN(CC(=O)O)CC2)CC1)C(C)C [^68Ga-LW01090, metal not drawn]" parameter_measured="tissue uptake at 1 h" value_reported=0.66

---

assay: in vivo; conditions: male, NRG, mouse, iv, total radioactivity, Biodistribution Blood Mean
Numbered stars: 1 amine (or outer) side, 2 acyl side, 3 side chain; on linkers, the order of the positions; unused ones are H or OH. Square brackets hold non-standard residues; d marks the D form. Peptide text beside a SMILES is read from it. * marks the point of attachment. DOTA = O=C(O)CN1CCN(CC(=O)O)CCN(CC(=O)*)CCN(CC(=O)O)CC1; Leuψ(CH2N)ThzNH2 = CC(C)C[C@@H](CN1CSC[C@H]1C(N)=O)N*; NMeH = CN[C@@H](Cc1c[nH]cn1)C(=O)O; X1 = O=C(CN1CCC(N[*:1])CC1)[*:2]; Tle = CC(C)(C)[C@H](N)C(=O)O; Thz = O=C(O)[C@@H]1CSCN1
tissue uptake at 1 h reference
parameter_measured: tissue uptake at 1 h

compound="CC(C)C[C@H](NC(=O)[C@H](Cc1cnc[nH]1)N(C)C(=O)CNC(=O)[C@@H](NC(=O)[C@H](C)NC(=O)[C@H](Cc1c[nH]c2ccccc12)NC(=O)[C@H](Cc1c[nH]cn1)NC(=O)[C@@H](Cc1ccccc1)NC(=O)CN1CCC(NC(=O)CN2CCN(CC(=O)O)CCN(CC(=O)O)CCN(CC(=O)O)CC2)CC1)C(C)(C)C)C(=O)N1CSC[C@H]1C(N)=O [^68Ga-LW01142, metal not drawn] ({DOTA}-[X1][dF]HWA[Tle]G[NMeH]L[Thz]-NH2)" value_reported="6.88 %ID/g"
compound="CC(C)C[C@H](NC(=O)[C@H](Cc1cnc[nH]1)N(C)C(=O)CNC(=O)[C@@H](NC(=O)[C@H](C)NC(=O)[C@H](Cc1c[nH]c2ccccc12)NC(=O)[C@H](CCC(N)=O)NC(=O)[C@@H](Cc1ccccc1)NC(=O)CN1CCC(NC(=O)CN2CCN(CC(=O)O)CCN(CC(=O)O)CCN(CC(=O)O)CC2)CC1)C(C)(C)C)C(=O)N1CSC[C@H]1C(N)=O [^68Ga-LW01110, metal not drawn]" value_reported="0.69 %ID/g"
compound="CC(C)C[C@H](NC(=O)[C@H](Cc1c[nH]cn1)N(C)C(=O)CNC(=O)[C@@H](NC(=O)[C@H](C)NC(=O)[C@H](Cc1c[nH]c2ccccc12)NC(=O)[C@H](CCC(N)=O)NC(=O)[C@@H](Cc1ccccc1)NC(=O)CN1CCC(NC(=O)CN2CCN(CC(=O)O)CCN(CC(=O)O)CCN(CC(=O)O)CC2)CC1)C(C)C)C(=O)N1CSC[C@H]1C(N)=O [^68Ga-LW01107, metal not drawn]" value_reported="0.3 %ID/g"
compound="CC(C)C[C@@H](CN1CSC[C@H]1C(N)=O)NC(=O)[C@H](Cc1c[nH]cn1)NC(=O)CNC(=O)[C@@H](NC(=O)[C@H](C)NC(=O)[C@H](Cc1c[nH]c2ccccc12)NC(=O)[C@H](CCC(N)=O)NC(=O)[C@@H](Cc1ccccc1)NC(=O)CN1CCC(NC(=O)CN2CCN(CC(=O)O)CCN(CC(=O)O)CCN(CC(=O)O)CC2)CC1)C(C)(C)C [^68Ga-LW01158, metal not drawn] ({DOTA}-[X1][dF]QWA[Tle]GH-{Leuψ(CH2N)ThzNH2})" value_reported="1.14 %ID/g"

---

assay: Ex vivo biodistribution in PC-3 tumor-bearing mice; settings: male, NRG, mouse, heart, iv, total radioactivity, Biodistribution Heart Mean, 1 h post-injection, mice bearing PC-3 tumor xenografts, n = 4
Numbered stars: 1 amine (or outer) side, 2 acyl side, 3 side chain; on linkers, the order of the positions; unused ones are H or OH. Square brackets hold non-standard residues; d marks the D form. Peptide text beside a SMILES is read from it. * marks the point of attachment. DOTA = O=C(O)CN1CCN(CC(=O)O)CCN(CC(=O)*)CCN(CC(=O)O)CC1; Leuψ(CH2N)ThzNH2 = CC(C)C[C@@H](CN1CSC[C@H]1C(N)=O)N*; X1 = O=C(CN1CCC(N[*:1])CC1)[*:2]
parameter_measured: tissue uptake at 1 h (%ID/g)

molecule="CC(C)C[C@@H](CN1CSC[C@H]1C(N)=O)NC(=O)[C@H](Cc1cnc[nH]1)NC(=O)CN(C)C(=O)[C@@H](NC(=O)[C@H](C)NC(=O)[C@H](Cc1c[nH]c2ccccc12)NC(=O)[C@H](CCC(N)=O)NC(=O)[C@@H](Cc1ccccc1)NC(=O)CN1CCC(NC(=O)CN2CCN(CC(=O)O)CCN(CC(=O)O)CCN(CC(=O)O)CC2)CC1)C(C)C [^68Ga-LW01090, metal not drawn]" unit_of_measurement=%ID/g value_reported=0.24
molecule="CC(C)C[C@@H](CN1CCC[C@H]1C(N)=O)NC(=O)[C@H](Cc1c[nH]cn1)NC(=O)CN(C)C(=O)[C@@H](NC(=O)[C@H](C)NC(=O)[C@H](Cc1c[nH]c2ccccc12)NC(=O)[C@H](CCC(N)=O)NC(=O)[C@@H](Cc1ccccc1)NC(=O)CN1CCC(NC(=O)CN2CCN(CC(=O)O)CCN(CC(=O)O)CCN(CC(=O)O)CC2)CC1)C(C)C [^68Ga-LW02045, metal not drawn]" unit_of_measurement=%ID/g value_reported=0.14
molecule="CC(C)C[C@@H](CN1CSC[C@H]1C(N)=O)NC(=O)[C@H](Cc1c[nH]cn1)NC(=O)CNC(=O)[C@@H](NC(=O)[C@H](C)NC(=O)[C@H](Cc1c[nH]c2ccccc12)NC(=O)[C@H](Cc1c[nH]cn1)NC(=O)[C@@H](Cc1ccccc1)NC(=O)CN1CCC(NC(=O)CN2CCN(CC(=O)O)CCN(CC(=O)O)CCN(CC(=O)O)CC2)CC1)C(C)C [^68Ga-LW01102, metal not drawn] ({DOTA}-[X1][dF]HWAVGH-{Leuψ(CH2N)ThzNH2})" unit_of_measurement=%ID/g value_reported=0.36
molecule="CC(C)C[C@H](NC(=O)[C@H](Cc1c[nH]cn1)NC(=O)CNC(=O)[C@@H](NC(=O)[C@H](C)NC(=O)[C@H](Cc1c[nH]c2ccccc12)NC(=O)[C@H](CCC(N)=O)NC(=O)[C@@H](Cc1ccc2ccccc2c1)NC(=O)CN1CCC(NC(=O)CN2CCN(CC(=O)O)CCN(CC(=O)O)CCN(CC(=O)O)CC2)CC1)C(C)C)C(=O)N1CSC[C@H]1C(N)=O [^68Ga-LW01029, metal not drawn]" unit_of_measurement=%ID/g value_reported=0.36
molecule="CC(C)C[C@@H](CN1CSC[C@H]1C(N)=O)NC(=O)[C@H](Cc1c[nH]cn1)NC(=O)CNC(=O)[C@@H](NC(=O)[C@H](C)NC(=O)[C@H](Cc1c[nH]c2ccccc12)NC(=O)[C@H](CCC(N)=O)NC(=O)[C@@H](Cc1ccccc1)NC(=O)CN1CCC(NC(=O)CN2CCN(CC(=O)O)CCN(CC(=O)O)CCN(CC(=O)O)CC2)CC1)C(C)C [^68Ga-LW01045, metal not drawn]" unit_of_measurement=%ID/g value_reported=0.27
molecule="CC(C)C[C@H](NC(=O)[C@H](Cc1c[nH]cn1)NC(=O)CNC(=O)[C@@H](NC(=O)[C@H](C)NC(=O)[C@H](Cc1c[nH]c2ccccc12)NC(=O)[C@H](CCC(N)=O)NC(=O)[C@@H](Cc1ccccc1)NC(=O)CN1CCC(NC(=O)CN2CCN(CC(=O)O)CCN(CC(=O)O)CCN(CC(=O)O)CC2)CC1)C(C)C)C(=O)N1CSC[C@H]1C(N)=O [^68Ga-LW01025, metal not drawn]" unit_of_measurement=%ID/g value_reported=0.13
molecule="CC(C)C[C@@H](CN1CSC[C@H]1C(N)=O)NC(=O)[C@H](Cc1c[nH]cn1)NC(=O)CNC(=O)[C@@H](NC(=O)[C@H](C)NC(=O)[C@H](Cc1c[nH]c2ccccc12)NC(=O)[C@H](CCC(N)=O)NC(=O)[C@@H](Cc1ccc2ccccc2c1)NC(=O)CN1CCC(NC(=O)CN2CCN(CC(=O)O)CCN(CC(=O)O)CCN(CC(=O)O)CC2)CC1)C(C)C [^68Ga-LW01059, metal not drawn]" unit_of_measurement=%ID/g value_reported=0.66
